Data credit: paper PMC4134510

- test.description: Pharmacokinetic properties on Balb/C mouse
- stated.conditions: in vivo, oral, 20 mg/kg
assay.metric: AUC

{"molecule": "Cc1ccc(Nc2ncc3c(n2)N(C)C(=O)N(c2cc(NC(=O)c4cccc(C(F)(F)F)c4)ccc2C)C3)cn1 [GNF-7]", "result": "26.7 µM·h"}
